src = ChEMBL document CHEMBL1955846

# Test system: HCT-116
# test: Cytotoxicity against human HCT116 cells after 3 days by CellTitre Glo assay
# Assay type: functional, cell-based
# condition: HCT-116, 72 h
assayReadout: pEC50
The meaning of pEC50 here: minus log10 of the concentration in molar units.

querySmiles: O=c1cc(-c2c[nH]c3ncccc23)nc(-c2ccccc2)[nH]1
pEC50: 6.08

Proceed to the following item.
Name the reported pEC50 value associated with the compound `O=c1cc(-c2c[nH]c3ncccc23)nc(N2CCOCC2)[nH]1`
6.35

###

Listed compounds paired with reported pKi
# testedOn: CDC7/DBF4 (Cell division cycle 7-related protein kinase/Activator of S phase kinase) (Homo sapiens)
# Sequence (Q9UBU7 whole entry): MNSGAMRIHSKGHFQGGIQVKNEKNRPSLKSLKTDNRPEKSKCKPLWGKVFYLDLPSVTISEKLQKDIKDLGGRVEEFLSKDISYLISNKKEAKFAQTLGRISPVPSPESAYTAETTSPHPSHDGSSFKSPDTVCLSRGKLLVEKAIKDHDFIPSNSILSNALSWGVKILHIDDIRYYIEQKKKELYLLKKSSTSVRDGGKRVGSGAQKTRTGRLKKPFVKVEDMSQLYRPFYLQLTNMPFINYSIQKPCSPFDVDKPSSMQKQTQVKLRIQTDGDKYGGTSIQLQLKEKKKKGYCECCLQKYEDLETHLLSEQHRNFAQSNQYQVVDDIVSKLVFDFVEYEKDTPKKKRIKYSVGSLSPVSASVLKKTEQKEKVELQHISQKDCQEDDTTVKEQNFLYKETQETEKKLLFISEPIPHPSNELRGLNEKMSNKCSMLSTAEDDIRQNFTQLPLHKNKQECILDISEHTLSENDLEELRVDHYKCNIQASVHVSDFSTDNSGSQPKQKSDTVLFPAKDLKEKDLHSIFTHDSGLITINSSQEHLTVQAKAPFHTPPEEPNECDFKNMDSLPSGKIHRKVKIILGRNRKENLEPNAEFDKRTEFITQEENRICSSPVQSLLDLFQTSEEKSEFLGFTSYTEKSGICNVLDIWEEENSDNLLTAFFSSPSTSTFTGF
# Sequence (O00311 whole entry): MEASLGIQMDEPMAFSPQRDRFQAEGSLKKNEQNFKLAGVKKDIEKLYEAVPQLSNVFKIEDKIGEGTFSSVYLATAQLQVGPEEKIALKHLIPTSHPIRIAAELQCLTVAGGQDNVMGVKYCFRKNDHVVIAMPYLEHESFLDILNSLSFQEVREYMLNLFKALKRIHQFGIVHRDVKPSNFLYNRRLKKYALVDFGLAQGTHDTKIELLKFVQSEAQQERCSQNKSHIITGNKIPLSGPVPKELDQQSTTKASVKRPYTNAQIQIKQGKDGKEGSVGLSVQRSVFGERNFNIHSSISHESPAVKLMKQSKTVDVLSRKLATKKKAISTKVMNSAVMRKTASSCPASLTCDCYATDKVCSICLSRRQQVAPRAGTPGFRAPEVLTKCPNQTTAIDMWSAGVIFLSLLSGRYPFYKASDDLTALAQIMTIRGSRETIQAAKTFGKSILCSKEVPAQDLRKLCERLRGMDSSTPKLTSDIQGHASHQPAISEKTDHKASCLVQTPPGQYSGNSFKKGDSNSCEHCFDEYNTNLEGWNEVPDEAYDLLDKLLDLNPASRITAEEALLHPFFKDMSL
The meaning of pKi here: minus log10 of the concentration in molar units.

Observe how each entry below is paired with its result.
querySmiles: O=c1cc(NC2CCCCC2)cc(-c2c[nH]c3ncccc23)[nH]1
endpointValue: 8.96

querySmiles: COCCN(CCOC)c1nc(-c2c[nH]c3ncccc23)cc(=O)[nH]1
endpointValue: 9.74

querySmiles: CN1CCC(Nc2nc(-c3c[nH]c4ncccc34)cc(=O)[nH]2)CC1
endpointValue: 9.96

Name the reported pKi value associated with the compound `O=c1cc(-c2c[nH]c3ncccc23)nc(Nc2ccccc2)[nH]1`
9.92

Name the reported pKi value associated with the compound `O=c1cc(-c2ccccc2)nc(NC2CCCCC2)[nH]1`
6.64
